Tested on: T-47D breast
PROTOCOL: NCI-60 one-dose screen, 48 h
EXPERIMENTAL_CONDITIONS: 10 µM unless noted
About 83,000 compounds went through this panel and 20% of them were active in at least one assay; those are over-represented in the sample as a whole. The source made the active and inactive calls. Rule for the calls: active = growth percent below 10; inactive = the rest.
# output must be one of active, inactive

What is the recorded call for this molecule in the test? Cc1ccc(-c2nc(C#N)c(S(=O)(=O)N3CCN(S(=O)(=O)c4ccc(Cl)cc4)CC3)o2)cc1
inactive

What is the recorded call for this molecule in the test? COc1ccc(C(=O)/C=C/c2cc3c(cc2Br)OCO3)cc1S(N)(=O)=O
active

What is the recorded call for this molecule in the test? COc1cc2c(c(OC)c1OC)C(=O)CC(c1cccc(NC(=O)c3cc([N+](=O)[O-])ccc3Cl)c1)O2 (stereo unspecified)
inactive

What is the recorded call for this molecule in the test? CN(C)c1nc(NCCNS(=O)(=O)c2ccc(C(=O)/C=C/c3ccc(C(F)(F)F)cc3)cc2)nc(Nc2ccc(F)cc2)n1
inactive

What is the recorded call for this molecule in the test? COc1ccc(N2N=C(c3ccc4c(c3)OCO4)CC2c2cccc(NC(=O)CCCNS(=O)(=O)c3ccc(F)cc3)c2)cc1 (stereo unspecified)
inactive

What is the recorded call for this molecule in the test? Cc1ccc(-c2nc(C#N)c(S(=O)(=O)N3CCN(S(=O)(=O)c4ccccc4)CC3)o2)cc1
active

What is the recorded call for this molecule in the test? O=C(c1ccccc1)C(c1c[nH]c2ccccc12)c1c[nH]c2ccccc12
inactive

What is the recorded call for this molecule in the test? Cn1cc(-c2cc(N)n3nc(-c4cn(C)c5ccc(Cl)cc45)cc3n2)c2ccccc21
inactive

What is the recorded call for this molecule in the test? Cn1nc(C(F)(F)F)cc1-c1cc(Cl)c(COc2ccc(Cl)cc2)c(-c2ccc(Cl)c(C(F)(F)F)c2)c1O
inactive

What is the recorded call for this molecule in the test? N#Cc1ccc(C(=O)Nn2c(N)cc3ccccc3c2=O)cc1
inactive

What is the recorded call for this molecule in the test? CC1=C(C(=O)c2ccccc2)C(c2cccc(Cl)c2Cl)n2c(nc3ccccc32)N1 (stereo unspecified)
inactive

What is the recorded call for this molecule in the test? COc1cc(/C=C/C(=O)c2ccc(C)cc2)ccc1Oc1nc(Nc2ccc(F)cc2)nc(N(C)C)n1
inactive

What is the recorded call for this molecule in the test? CCCCSc1nc(Nc2ccc(C(C)=O)cc2)c(C#N)c(-c2ccc(OC)cc2)n1
inactive

What is the recorded call for this molecule in the test? CCN(CC)c1ccc(/C=N/Nc2nc(-c3ccc(Br)cc3)cs2)c(O)c1
inactive

What is the recorded call for this molecule in the test? CCCCCCCCOc1cccc(S(=O)(=O)Nc2ccc(C)cc2C(=O)O)c1
inactive

What is the recorded call for this molecule in the test? O=c1oc2ccccc2cc1-c1csc(N2N=C(c3ccccc3)CC2c2ccc(N3CCOCC3)cc2)n1 (stereo unspecified)
inactive

What is the recorded call for this molecule in the test? O=C(c1ccc(OCCN2CCOCC2)cc1)C1[C@H](c2ccc(Cl)cc2)[C@@H](c2ccccc2)NC12C(=O)Nc1ccc(Br)cc12 (stereo partly specified)
inactive

What is the recorded call for this molecule in the test? C#CCOc1cc(N(CC)CC)ccc1C(C(=O)NC(C)(C)C)N(C(=O)C1CCc2cc(F)ccc2O1)c1ccc(F)cc1 (stereo unspecified)
inactive

What is the recorded call for this molecule in the test? Clc1cccc(-c2ccc(OCCCN3CCN(c4ccncc4)CC3)cc2)c1
active

What is the recorded call for this molecule in the test? COc1ccc(-c2ccnc(SCc3cc4ccccc4[nH]c3=O)n2)cc1OC
active

What is the recorded call for this molecule in the test? COc1c(F)ccc(C(=O)Nc2ccc3nc(NC(=O)C4CCCN(S(=O)(=O)c5cccc(Br)c5)C4)sc3c2)c1F (stereo unspecified)
inactive

What is the recorded call for this molecule in the test? Cc1cc2nc3c4ccccc4n(CCNCCN(C)C)c3nc2cc1C
inactive

What is the recorded call for this molecule in the test? O=C(CCN1C(=O)/C(=C/c2ccc(F)cc2)SC1=S)N1CCOCC1
inactive

What is the recorded call for this molecule in the test? O=C(/C=C/c1cccc(OCc2ccccc2)c1)c1nc2ccccc2[nH]1
inactive

What is the recorded call for this molecule in the test? O=C(Cn1c(/C=C/c2ccccc2)nc2ccccc2c1=O)Nc1ccccc1
active

What is the recorded call for this molecule in the test? CN(C)c1nc(NCCNS(=O)(=O)c2ccc(C3=Nc4c(N)nc(N)nc4NC(c4ccc(F)cc4)C3)cc2)nc(Nc2ccc(F)cc2)n1 (stereo unspecified)
inactive

What is the recorded call for this molecule in the test? COc1cccc(COc2ccc(NC(=O)Nc3ccc(Cl)c(C(F)(F)F)c3)cc2)c1
inactive

What is the recorded call for this molecule in the test? COC(=O)/C=C/c1cccc2c1C(=O)NC(C)(c1cc3ccccc3oc1=O)N2 (stereo unspecified)
inactive

What is the recorded call for this molecule in the test? COc1ccc(C(=O)/C=C/c2cccc3ccccc23)cc1S(N)(=O)=O
active

What is the recorded call for this molecule in the test? O=C(O)Cn1c(O)c(/C=C2/C=c3cc4c(cc3=NC2=O)OCCO4)sc1=S
inactive

What is the recorded call for this molecule in the test? CC1CCCCN1CCCNC(=O)N/C(N)=N/c1nc2ccccc2s1 (stereo unspecified)
inactive

What is the recorded call for this molecule in the test? O=C(O)c1cccc(-c2ccc(/C=N/NC(=O)c3[nH]c4ccc(Br)cc4c3-c3ccccc3)o2)c1
inactive

What is the recorded call for this molecule in the test? COc1cc(/C=C/C(=O)c2nnn(-c3ccc(Cl)cc3)c2C)cc(OC)c1OC
inactive

What is the recorded call for this molecule in the test? CC1(C)CC[C@]2(C(=O)O)CC[C@]3(C)C(=CCC4[C@@]5(C)C[C@@H](O)[C@@H]6OC(c7ccco7)OC[C@@]6(C)C5CC[C@]43C)C2C1 (stereo partly specified)
inactive

What is the recorded call for this molecule in the test? COc1cc2c(c(OC)c1OC)C(=O)CC(c1cccc(NC(=O)c3cccc(NC(=O)[C@H](C)NC(=O)OC(C)(C)C)c3)c1)O2 (stereo partly specified)
inactive

What is the recorded call for this molecule in the test? COc1cc2oc(-c3cccc(NC(=O)[C@H](Cc4ccccc4)NC(=O)OC(C)(C)C)c3)cc(=O)c2c(OC)c1OC
inactive
